Data origin: the Human Domainome abundance scans (Beltran et al. 2025)

B1: Nuclear receptor subfamily 1 group D member 2, residues 103 to 171; numbered along this chain, Q14995 (parent)
chain: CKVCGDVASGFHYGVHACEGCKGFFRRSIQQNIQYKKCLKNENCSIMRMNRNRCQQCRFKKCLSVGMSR

- Variants of: B1
- ASSAY_PROCEDURE: abundance fitness (aPCA) (normalised: wild type 0, dead -1); higher = more abundant; growth selection in yeast, the domain comes from the species named
- ASSAY_CONDITIONS: Homo sapiens
PROPERTY_MEASURED: abundance fitness
Give bare numbers.

MUTATION_DESCRIPTOR: I33L
PROPERTY_MEASURED: abundance fitness
VALUE_OBSERVED: -0.065

MUTATION_DESCRIPTOR: Q31P
PROPERTY_MEASURED: abundance fitness
VALUE_OBSERVED: -0.457

For the 7 variants below, give their abundance fitness values.
1. I46Y
2. I46G
3. S64C
4. R48W
5. C54L
6. R58N
7. S68G

1: 0.082; 2: -0.258; 3: -0.469; 4: -0.018; 5: -0.749; 6: -0.759; 7: -0.125
